All values here come from patent US20260174878A1.

# tested on: IRAK4 protein in normal human PBMCs (Homo sapiens)
# Construct: host or cells: normal human PBMCs
# Sequence (Q9NWZ3 whole entry): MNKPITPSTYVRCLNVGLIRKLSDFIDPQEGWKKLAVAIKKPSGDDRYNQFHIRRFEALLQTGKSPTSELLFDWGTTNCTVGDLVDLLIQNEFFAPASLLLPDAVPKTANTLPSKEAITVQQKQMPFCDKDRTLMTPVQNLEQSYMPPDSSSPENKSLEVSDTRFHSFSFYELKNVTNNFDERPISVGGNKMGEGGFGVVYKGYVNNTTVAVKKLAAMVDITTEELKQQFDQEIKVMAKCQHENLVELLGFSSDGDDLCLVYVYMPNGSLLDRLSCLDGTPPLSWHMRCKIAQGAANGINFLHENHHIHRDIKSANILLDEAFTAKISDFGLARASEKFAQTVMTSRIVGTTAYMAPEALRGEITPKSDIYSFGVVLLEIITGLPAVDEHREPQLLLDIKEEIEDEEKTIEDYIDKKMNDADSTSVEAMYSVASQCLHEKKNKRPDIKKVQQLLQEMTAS
# procedure details: Degradation of IRAK4 protein in normal human PBMCs (AlphaLISA)
# Type: cell-based
# stated conditions: 24 h incubation
Recorded Dmax values for a group of compounds are listed next.
The response must be a number in % with no trailing unit.

Recorded results for 2 compounds are shown here.
>>> test_result("COc1cc2nn([C@H]3CC[C@](O)(CN(C)CC4CCC5(CC4)CCN(C(=O)c4ccc(Cl)c(N6CCC(=O)NC6=O)c4)CC5)CC3)cc2cc1NC(=O)c1cccc(C(F)(F)F)n1 [Example 35]")
99.7
>>> test_result("O=C1CCN(c2cc(C(=O)N3CCC4(CCC(CN5CCC(n6cc(NC(=O)c7cnn8ccc(N9CCS(=O)(=O)CC9)nc78)c(C(F)F)n6)CC5)CC4)CC3)ccc2Cl)C(=O)N1 [Example 29]")
98.2

Attention now shifts to the item below.
Quick check: Dmax of Cc1ccc(C(=O)N2CCC3(CCC(CN4CCC(n5cc(NC(=O)c6cnn7ccc(N8CCOCC8)nc67)c(C(F)F)n5)CC4)CC3)CC2)cc1N1CCC(=O)NC1=O [Example 13] ? 98.2
